Recorded Meas. ratio (noFAD/FAD), one value per entry.
# tested target: Diaphorase
# measurement description: peptide array, 1 uM diaphorase, measured binding without FAD / with FAD

Prompt line: For the binder `PQKSNHFHEAQKR` , give its measured Meas. ratio (noFAD/FAD) value.
Response line: 2.41

Prompt line: For the binder `NHLLEGAFVSEGS` , give its measured Meas. ratio (noFAD/FAD) value.
Response line: 0.77

Prompt line: For the binder `VLAYKLQVDGSG` , give its measured Meas. ratio (noFAD/FAD) value.
Response line: 0.68

Prompt line: For the binder `ARWQQYKFGGSG` , give its measured Meas. ratio (noFAD/FAD) value.
Response line: 2.18

Prompt line: For the binder `GYHLFEKLYFDGS` , give its measured Meas. ratio (noFAD/FAD) value.
Response line: 0.7

The measured values listed here are drawn from patent US20190064177A1.
